Where these numbers come from: patent US20170298096A1

Provide the recorded ELISA signal for the entries that follow.
Molecular target: T1, His-tagged P3028 (human, not fully specified)
T1 construct: the tag is put first after 'PGE73=His-tag-P3028'; also called PGE73; not shown: His-tag
T1 peptide: {His‑tag}-VFDEFKPLVEEPQNLIK
Test: chip ELISA
No end group written: not given here.
Give bare numbers.

Completed entries (count: 5):
>>> print(df.to_string())
                         binder  numeric_value
0   NKLDTFFVKLSLFTER [P28R K1N]            445
1   KKLITFFVKLSLFTER [P28R D4I]            430
2  KKLDTFFVKLSLFTLR [P28R E15L]            246
3  KKLDTFFVKLSLFTFR [P28R E15F]            137
4   KKLQTFFVKLSLFTER [P28R D4Q]            345

State recorded ELISA signal for all listed binders.
1. KKQDTFFVKLSLFTER [P28R L3Q]
2. KKLDTFFVKLSLFTMR [P28R E15M]

Result block:
[473, 247]
